Target: cloned human or rodent CNS receptors, channels, and transporters (PDSP panel) (Homo sapiens, UniProt P20309)
Construct: expressed in transfected cells
Sequence (P20309 whole entry): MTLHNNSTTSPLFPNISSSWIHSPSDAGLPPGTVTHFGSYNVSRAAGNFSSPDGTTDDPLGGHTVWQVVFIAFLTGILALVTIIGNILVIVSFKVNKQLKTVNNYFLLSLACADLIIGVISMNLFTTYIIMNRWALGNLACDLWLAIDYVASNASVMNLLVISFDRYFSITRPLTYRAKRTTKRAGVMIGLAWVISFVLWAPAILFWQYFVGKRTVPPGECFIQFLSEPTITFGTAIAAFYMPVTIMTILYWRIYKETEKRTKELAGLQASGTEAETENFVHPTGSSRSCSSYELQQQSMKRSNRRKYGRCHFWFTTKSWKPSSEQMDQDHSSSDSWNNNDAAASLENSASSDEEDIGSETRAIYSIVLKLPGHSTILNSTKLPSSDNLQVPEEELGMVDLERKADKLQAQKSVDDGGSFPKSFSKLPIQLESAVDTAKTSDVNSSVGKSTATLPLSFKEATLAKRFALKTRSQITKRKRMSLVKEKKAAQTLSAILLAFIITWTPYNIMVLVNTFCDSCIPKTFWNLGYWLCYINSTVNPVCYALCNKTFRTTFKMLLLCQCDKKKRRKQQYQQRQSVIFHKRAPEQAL
Assay: PDSP GPCR panel primary binding assays at 10 μM
Conditions: M3; primary assay, replicate 2
Method: GPCR panel: Screening against the receptors within the PDSP panel offers an assessment of off-target pharmacological activity at cloned human or rodent CNS receptors, channels, and transporters that could confound CNS-related phenotypes. A total of 46–47 primary binding assays were run in quadruplicate on these compounds at 10 μM, with follow-up secondary binding assays in 11-point dose-response in triplicate for select compounds versus select receptors. […]
Each entry below lists one item and its recorded Inhibition 2 value.
Please reply with the bare figure in % and do not write the unit itself.

Worked examples, 3 compounds total:
CC(=O)N1CCC(NC(=O)NC23CC4CC(CC(C4)C2)C3)CC1 [UNC10302683A, AR9281] ... -3.76
CCC(=O)N1CCC(NC(=O)Nc2ccc(OC(F)(F)F)cc2)CC1 [UNC10302681A, TPPU] ... 5.92
CNc1nc(C)nc(N[C@H]2CCC[C@@H](C(=O)NCc3ccc(C#N)cc3C(F)(F)F)C2)n1 [UNC10302679A, GSK2256294A] ... 2.67

For the next question, use this compound.
Task: Fill in the blank: the reported Inhibition 2 of O=C(NC1CC1)C(=O)C(Cc1ccccc1)NC(=O)[C@H]1CCC(=O)N1Cc1ccccc1 (stereo partly shown) [UNC10302676A, ABT-957 (Alicapistat)] is ____.
Output: -16.69

---

molecular target: cloned human or rodent CNS receptors, channels, and transporters (PDSP panel) (Homo sapiens, UniProt P41595); construct: expressed in transfected cells; test: PDSP GPCR panel primary binding assays at 10 μM; settings: 5-HT2B; primary assay, mean inhibition
Sequence (P41595 whole entry): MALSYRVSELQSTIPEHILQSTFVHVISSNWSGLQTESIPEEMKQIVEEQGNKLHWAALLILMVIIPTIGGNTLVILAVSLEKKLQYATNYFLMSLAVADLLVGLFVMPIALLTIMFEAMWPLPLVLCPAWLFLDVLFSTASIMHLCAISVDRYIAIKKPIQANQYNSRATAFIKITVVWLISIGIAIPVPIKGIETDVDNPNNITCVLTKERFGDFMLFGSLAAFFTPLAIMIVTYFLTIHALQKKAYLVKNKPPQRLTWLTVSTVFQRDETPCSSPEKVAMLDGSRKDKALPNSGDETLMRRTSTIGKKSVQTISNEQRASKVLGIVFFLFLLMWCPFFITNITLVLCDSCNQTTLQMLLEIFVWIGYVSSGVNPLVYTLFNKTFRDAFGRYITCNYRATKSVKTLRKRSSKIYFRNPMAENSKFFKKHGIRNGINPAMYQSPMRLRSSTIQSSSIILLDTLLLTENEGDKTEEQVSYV
Assay Readout: Mean % (%)
Please reply with the bare figure in % and do not write the unit itself.

Worked examples, 2 molecules total:
O=C(NC1CC1)C(=O)C(Cc1ccccc1)NC(=O)[C@H]1CCC(=O)N1Cc1ccccc1 (stereo partly shown) [UNC10302676A, ABT-957 (Alicapistat)] ... -32.15
CNc1nc(C)nc(N[C@H]2CCC[C@@H](C(=O)NCc3ccc(C#N)cc3C(F)(F)F)C2)n1 [UNC10302679A, GSK2256294A] ... -22.71

Task: Fill in the blank: the reported Mean % of CC(=O)N1CCC(NC(=O)NC23CC4CC(CC(C4)C2)C3)CC1 [UNC10302683A, AR9281] is ____.
Output: -14.63

Task: Fill in the blank: the reported Mean % of CCC(=O)N1CCC(NC(=O)Nc2ccc(OC(F)(F)F)cc2)CC1 [UNC10302681A, TPPU] is ____.
Output: 40.75

---

molecular target: cloned human or rodent CNS receptors, channels, and transporters (PDSP panel) (Homo sapiens, UniProt P28222); construct: expressed in transfected cells; assay: PDSP GPCR panel primary binding assays at 10 μM; conditions: 5-HT1B; primary assay, replicate 1
Sequence (P28222 whole entry): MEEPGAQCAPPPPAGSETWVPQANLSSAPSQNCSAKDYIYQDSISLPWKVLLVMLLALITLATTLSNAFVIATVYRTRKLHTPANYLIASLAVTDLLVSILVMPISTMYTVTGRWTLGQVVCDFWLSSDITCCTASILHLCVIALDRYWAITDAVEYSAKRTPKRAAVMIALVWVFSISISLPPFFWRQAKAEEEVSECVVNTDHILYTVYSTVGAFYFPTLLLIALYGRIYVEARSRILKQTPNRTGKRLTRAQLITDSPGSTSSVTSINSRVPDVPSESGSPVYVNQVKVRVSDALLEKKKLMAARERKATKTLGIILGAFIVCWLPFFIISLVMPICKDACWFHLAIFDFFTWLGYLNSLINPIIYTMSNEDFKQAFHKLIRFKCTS
Each entry below lists one item and its recorded Inhibition 1 value.
Please reply with the bare figure in % and do not write the unit itself.

Task: Fill in the blank: the reported Inhibition 1 of CNc1nc(C)nc(N[C@H]2CCC[C@@H](C(=O)NCc3ccc(C#N)cc3C(F)(F)F)C2)n1 [UNC10302679A, GSK2256294A] is ____.
Output: 6.88

Task: Fill in the blank: the reported Inhibition 1 of O=C(NC1CC1)C(=O)C(Cc1ccccc1)NC(=O)[C@H]1CCC(=O)N1Cc1ccccc1 (stereo partly shown) [UNC10302676A, ABT-957 (Alicapistat)] is ____.
Output: 9.16

Task: Fill in the blank: the reported Inhibition 1 of CC(=O)N1CCC(NC(=O)NC23CC4CC(CC(C4)C2)C3)CC1 [UNC10302683A, AR9281] is ____.
Output: 23.19

Task: Fill in the blank: the reported Inhibition 1 of CCC(=O)N1CCC(NC(=O)Nc2ccc(OC(F)(F)F)cc2)CC1 [UNC10302681A, TPPU] is ____.
Output: 7.08

---

Molecular target: cloned human or rodent CNS receptors, channels, and transporters (PDSP panel) (Homo sapiens, UniProt P18089)
Construct: expressed in transfected cells
Sequence (P18089 1-450): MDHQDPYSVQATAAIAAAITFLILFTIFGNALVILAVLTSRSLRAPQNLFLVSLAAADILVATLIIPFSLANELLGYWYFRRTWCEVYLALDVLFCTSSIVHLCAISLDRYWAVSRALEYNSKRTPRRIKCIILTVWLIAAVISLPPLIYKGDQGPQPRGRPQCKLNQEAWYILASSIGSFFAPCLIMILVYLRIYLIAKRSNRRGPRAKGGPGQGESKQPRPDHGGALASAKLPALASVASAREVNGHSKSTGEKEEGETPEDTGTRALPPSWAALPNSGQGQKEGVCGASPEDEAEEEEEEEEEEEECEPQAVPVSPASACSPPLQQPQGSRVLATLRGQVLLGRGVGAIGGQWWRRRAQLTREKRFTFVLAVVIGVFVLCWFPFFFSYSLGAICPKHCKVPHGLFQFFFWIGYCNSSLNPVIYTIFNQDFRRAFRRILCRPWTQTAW
Test: PDSP GPCR panel primary binding assays at 10 μM
Conditions: Receptor Alpha2B; primary assay, 10 μM
Assay Readout: Inhibition 4 (%)
Please reply with the bare figure in % and do not write the unit itself.

Task: Fill in the blank: the reported Inhibition 4 of CCCCNc1ncc2c(-c3ccc(CN4CCN(C)CC4)cc3)cn([C@H]3CC[C@H](O)CC3)c2n1 [UNC2025C, UNC2025] is ____.
Output: 53.34

Task: Fill in the blank: the reported Inhibition 4 of Cl.NC(=O)c1cnc(N[C@@H]2CCCC[C@@H]2N)nc1Nc1cccc(-n2nccn2)c1 [UNC10302682A, P505-15 (PRT06207 HCl)] is ____.
Output: -0.22

Task: Fill in the blank: the reported Inhibition 4 of O=c1oc2ccccc2cc1-c1cn2cc(Cc3ccc(F)cc3)sc2n1 [UNC10302680A, iMDK] is ____.
Output: 7.87

Task: Fill in the blank: the reported Inhibition 4 of c1cn2cc(-c3ccc4cn[nH]c4c3)nc(Nc3ccc(N4CCOCC4)cc3)c2n1 [UNC10302678A, Entospletinib (GS-9973)] is ____.
Output: -4.05

---

target: cloned human or rodent CNS receptors, channels, and transporters (PDSP panel) (Homo sapiens, UniProt P46098); construct: expressed in transfected cells; test: PDSP GPCR panel primary binding assays at 10 μM; details: 5-HT3; primary assay, replicate 2
Sequence (P46098 24-478): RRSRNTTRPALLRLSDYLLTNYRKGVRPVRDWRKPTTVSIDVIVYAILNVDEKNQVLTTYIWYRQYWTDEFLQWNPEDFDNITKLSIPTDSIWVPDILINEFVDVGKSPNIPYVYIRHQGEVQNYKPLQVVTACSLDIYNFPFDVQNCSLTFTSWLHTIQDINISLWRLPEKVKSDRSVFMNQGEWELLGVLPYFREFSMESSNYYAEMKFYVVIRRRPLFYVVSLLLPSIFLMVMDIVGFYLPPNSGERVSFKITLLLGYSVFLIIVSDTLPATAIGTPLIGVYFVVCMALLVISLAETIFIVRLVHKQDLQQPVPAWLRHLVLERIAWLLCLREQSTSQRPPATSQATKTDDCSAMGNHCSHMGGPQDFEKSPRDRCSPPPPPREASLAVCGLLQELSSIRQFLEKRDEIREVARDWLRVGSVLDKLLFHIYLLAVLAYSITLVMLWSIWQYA
Each entry below lists one item and its recorded Inhibition 2 value.
Please reply with the bare figure in % and do not write the unit itself.

Worked examples, 3 molecules total:
CC(=O)N1CCC(NC(=O)NC23CC4CC(CC(C4)C2)C3)CC1 [UNC10302683A, AR9281] ... 13.6
CCC(=O)N1CCC(NC(=O)Nc2ccc(OC(F)(F)F)cc2)CC1 [UNC10302681A, TPPU] ... 16.16
O=C(NC1CC1)C(=O)C(Cc1ccccc1)NC(=O)[C@H]1CCC(=O)N1Cc1ccccc1 (stereo partly shown) [UNC10302676A, ABT-957 (Alicapistat)] ... -3.65

For the next question, use this molecule.
Task: Fill in the blank: the reported Inhibition 2 of CNc1nc(C)nc(N[C@H]2CCC[C@@H](C(=O)NCc3ccc(C#N)cc3C(F)(F)F)C2)n1 [UNC10302679A, GSK2256294A] is ____.
Output: 9.4

---

Biological target: dopamine transporter (Homo sapiens, UniProt Q01959)
Construct: expressed in transfected cells
Sequence (Q01959 whole entry): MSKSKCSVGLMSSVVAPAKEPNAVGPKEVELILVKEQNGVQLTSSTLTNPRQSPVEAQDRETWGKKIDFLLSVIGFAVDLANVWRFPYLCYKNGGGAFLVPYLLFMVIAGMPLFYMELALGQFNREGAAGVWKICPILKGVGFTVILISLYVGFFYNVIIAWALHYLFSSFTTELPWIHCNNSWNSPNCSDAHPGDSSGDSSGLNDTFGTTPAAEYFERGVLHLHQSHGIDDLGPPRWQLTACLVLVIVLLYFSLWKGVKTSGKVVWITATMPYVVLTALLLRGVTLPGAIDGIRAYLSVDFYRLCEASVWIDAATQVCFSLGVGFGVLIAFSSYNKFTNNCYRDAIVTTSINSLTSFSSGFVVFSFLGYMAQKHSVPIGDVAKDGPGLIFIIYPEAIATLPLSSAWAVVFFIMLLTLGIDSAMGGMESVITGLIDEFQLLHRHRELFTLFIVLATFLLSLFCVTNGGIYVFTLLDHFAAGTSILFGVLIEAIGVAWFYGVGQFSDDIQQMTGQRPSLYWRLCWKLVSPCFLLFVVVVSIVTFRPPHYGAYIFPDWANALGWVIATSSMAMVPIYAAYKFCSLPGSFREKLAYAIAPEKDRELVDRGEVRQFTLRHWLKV
Experiment: PDSP secondary binding, dopamine transporter
Parameters: species or system human or rodent
Conditions: DAT; secondary assay, run 2; read-out: Ki (nM) 2
Protocol: GPCR panel: Screening against the receptors within the PDSP panel offers an assessment of off-target pharmacological activity at cloned human or rodent CNS receptors, channels, and transporters that could confound CNS-related phenotypes. A total of 46–47 primary binding assays were run in quadruplicate on these compounds at 10 μM, with follow-up secondary binding assays in 11-point dose-response in triplicate for select compounds versus select receptors. […]
Assay Readout: Ki

Task: Fill in the blank: the reported Ki of CNc1nc(C)nc(N[C@H]2CCC[C@@H](C(=O)NCc3ccc(C#N)cc3C(F)(F)F)C2)n1 [UNC10302679A, GSK2256294A] is ____.
Output: > 10000 nM

---

Each entry below lists one item and its recorded Mean % value.
test system: cloned human or rodent CNS receptors, channels, and transporters (PDSP panel); assay: PDSP GPCR panel primary binding assays at 10 μM; settings: BZP Rat Brain Site; primary assay, mean inhibition
Please reply with the bare figure in % and do not write the unit itself.

Worked examples, 3 molecules total:
O=C(NC1CC1)C(=O)C(Cc1ccccc1)NC(=O)[C@H]1CCC(=O)N1Cc1ccccc1 (stereo partly shown) [UNC10302676A, ABT-957 (Alicapistat)] ... 3.75
CCC(=O)N1CCC(NC(=O)Nc2ccc(OC(F)(F)F)cc2)CC1 [UNC10302681A, TPPU] ... 9.51
CNc1nc(C)nc(N[C@H]2CCC[C@@H](C(=O)NCc3ccc(C#N)cc3C(F)(F)F)C2)n1 [UNC10302679A, GSK2256294A] ... 4.01

For the next question, use this molecule.
Task: Fill in the blank: the reported Mean % of CC(=O)N1CCC(NC(=O)NC23CC4CC(CC(C4)C2)C3)CC1 [UNC10302683A, AR9281] is ____.
Output: -1.68
